system: ATP-dependent Clp protease proteolytic subunit, mitochondrial (Homo sapiens, UniProt Q16740)
Sequence (Q16740 whole entry): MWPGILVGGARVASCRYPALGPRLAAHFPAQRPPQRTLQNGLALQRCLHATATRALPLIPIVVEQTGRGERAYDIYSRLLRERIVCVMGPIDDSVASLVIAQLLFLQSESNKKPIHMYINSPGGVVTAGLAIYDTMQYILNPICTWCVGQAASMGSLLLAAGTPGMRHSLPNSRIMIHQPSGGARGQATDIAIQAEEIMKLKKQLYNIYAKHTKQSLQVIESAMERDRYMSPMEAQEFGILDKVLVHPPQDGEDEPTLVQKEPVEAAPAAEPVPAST
procedureDetails: Agonist activity at human CLpP by measuring alpha-casein hydrolysis using alpha-casein as substrate preincubated for 10 mins followed by substrate addition and measured after 120 mins by Coomassie brilliant blue staining based SDS-PAGE assay
measureName: pEC50
Remember, pEC50 is on a log scale: it is -log10 of the molar concentration.

Measured pEC50, CC[C@H](C)[C@H]1C(=O)N(Cc2cccc3c2OCO3)C[C@@H]2N(C(=O)NCc3ccc(Br)cc3)CCC(=O)N12 : 4.83

Measured pEC50, CC[C@H](C)[C@H]1C(=O)N(Cc2cccc3ccccc23)C[C@@H]2N(C(=O)NCc3ccccc3)CCC(=O)N12 : 5.11

Measured pEC50, CC[C@H](C)[C@H]1C(=O)N(Cc2cccc3ccccc23)C[C@@H]2N(C(=O)CCc3ccc(F)cc3)CCC(=O)N12 : 4.98

Measured pEC50, O=C1[C@H](Cc2ccc(O)cc2)N2C(=O)CCN(C(=O)NCc3ccccc3)[C@H]2CN1Cc1cccc2ccccc12 : 5.15

Measured pEC50, CSCC[C@H]1C(=O)N(Cc2cccc3ccccc23)C[C@@H]2N(C(=O)NCc3ccccc3)CCC(=O)N21 : 4.80

###

system: ATP-dependent Clp protease proteolytic subunit, mitochondrial (Homo sapiens, UniProt Q16740)
procedureDetails: Agonist activity at human CLpP by measuring alpha-casein hydrolysis using alpha-casein as substrate preincubated for 10 mins followed by substrate addition and measured after 120 mins by Coomassie brilliant blue staining based SDS-PAGE assay
Binary call on EC50 with cut-off 5 µM: strictly below means criterion met, and equality or higher means criterion not met.

# TODO verify EC50 < 5 µM strictly for this compound: O=C1[C@H](Cc2ccccc2)N2C(=O)CCN(C(=O)NCc3ccccc3)[C@H]2CN1Cc1cccc2ccccc12
criterion not met

# TODO verify EC50 < 5 µM strictly for this compound: CC[C@H](C)[C@H]1C(=O)N(Cc2cccc3ccccc23)C[C@@H]2N(C(=O)NCc3ccc(I)cc3)CCC(=O)N12
criterion not met

# TODO verify EC50 < 5 µM strictly for this compound: CC[C@H](C)[C@H]1C(=O)N(Cc2cccc3ccccc23)C[C@@H]2N(C(=O)NCc3ccc(C(C)C)cc3)CCC(=O)N12
criterion not met

# TODO verify EC50 < 5 µM strictly for this compound: CC[C@H](C)[C@H]1C(=O)N(Cc2cccc3ccccc23)C[C@@H]2N(C(=O)NCc3ccc(OC)c(OC)c3)CCC(=O)N12
criterion not met

# TODO verify EC50 < 5 µM strictly for this compound: CC[C@H](C)[C@H]1C(=O)N(Cc2cccc3ccccc23)C[C@@H]2N(C(=O)NCC3CCCCC3)CCC(=O)N12
criterion not met

# TODO verify EC50 < 5 µM strictly for this compound: O=C1[C@H](Cc2cnc[nH]2)N2C(=O)CCN(C(=O)NCc3ccccc3)[C@H]2CN1Cc1cccc2ccccc12
criterion not met

# TODO verify EC50 < 5 µM strictly for this compound: CC[C@H](C)[C@H]1C(=O)N(Cc2cccc3ccccc23)C[C@@H]2N(C(=O)NCc3cc(F)c(F)c(F)c3)CCC(=O)N12
criterion not met

# TODO verify EC50 < 5 µM strictly for this compound: NC(=O)C[C@H]1C(=O)N(Cc2cccc3ccccc23)C[C@@H]2N(C(=O)NCc3ccccc3)CCC(=O)N21
criterion not met

# TODO verify EC50 < 5 µM strictly for this compound: CC[C@H](C)[C@H]1C(=O)N(Cc2cccc3ccccc23)C[C@@H]2N(C(=O)NCc3ccc(Cl)cc3)CCC(=O)N12
criterion met

# TODO verify EC50 < 5 µM strictly for this compound: CC[C@H](C)[C@H]1C(=O)N(Cc2ccc(F)c3ccccc23)C[C@@H]2N(C(=O)NCc3ccc(Br)cc3)CCC(=O)N12
criterion met

# TODO verify EC50 < 5 µM strictly for this compound: CC[C@H](C)[C@H]1C(=O)N(Cc2cccc3ccccc23)C[C@@H]2N(C(=O)NCc3c(F)cc(Br)cc3F)CCC(=O)N12
criterion not met

# TODO verify EC50 < 5 µM strictly for this compound: CCCCNC(=O)N1CCC(=O)N2[C@@H]([C@@H](C)CC)C(=O)N(Cc3cccc4ccccc34)C[C@H]12
criterion met

# TODO verify EC50 < 5 µM strictly for this compound: CC[C@H](C)[C@H]1C(=O)N(Cc2cccc3ccccc23)C[C@@H]2N(C(=O)CCc3ccccc3)CCC(=O)N12
criterion not met
